Cited source for all entries: PubChem BioAssay AID1963967

// reported viability, T/C per item
System: 855422-203-R-J1-PDC spheroids with HUVEC/MSC, viability
protocol_text: Anticancer human tumor 855422-203-R-J1-PDC patient-derived bladder carcinoma cell line growth inhibition [PI3K]
condition_set: second compound 10 µM; first compound 10 µM; stronger effect = lower value
Answer with a number only, understood to be in %.

Worked examples follow.
[
  {
    "molecule": "Cn1nccc1Nc1nccc(-c2ccn(C(CO)c3ccc(Cl)c(F)c3)c(=O)c2)n1 (stereo not drawn) + Cc1nc(NC(=O)N2CCCC2C(N)=O)sc1-c1ccnc(C(C)(C)C(F)(F)F)c1",
    "reported_measurement": 4.78
  },
  {
    "molecule": "CCCS(=O)(=O)Nc1ccc(F)c(C(=O)c2c[nH]c3ncc(-c4ccc(Cl)cc4)cc23)c1F + CC(Nc1ncnc2nc[nH]c12)c1cc2cccc(Cl)c2c(=O)n1-c1ccccc1",
    "reported_measurement": 0.42
  }
]

Here's the next entry for you.
Please give measured viability, T/C of the following entry: C#Cc1c(F)ccc2cc(O)cc(-c3ncc4c(N5CC6CCC(C5)N6)nc(OCC56CCCN5CC(F)C6)nc4c3F)c12 (stereo not drawn) + CC(Nc1ncnc2nc[nH]c12)c1cc2cccc(Cl)c2c(=O)n1-c1ccccc1 88.9

----------
System: 855422-203-R-J1-PDC spheroids with HUVEC/MSC, viability
protocol_text: Anticancer human tumor 855422-203-R-J1-PDC cell line growth inhibition [PI3K];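 note: agents incubated with spheroids for one week before read-out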;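 for viability, T/C: 100% = DMSO vehicle-treated control wells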
condition_set: second compound 0.0316 µM; first compound 0.001 µM; stronger effect = lower value
Would you mind sorting the entries by viability, T/C according to these classes? low (below 80%), mid (80% to below 90%), high (90% or more)

[
  {
    "compound": "Cn1ncnc1[C@H]1c2n[nH]c(=O)c3cc(F)cc(c23)N[C@@H]1c1ccc(F)cc1 + Cc1nc(NC(=O)N2CCCC2C(N)=O)sc1-c1ccnc(C(C)(C)C(F)(F)F)c1",
    "answer_label": "high"
  },
  {
    "compound": "CC(=O)c1c(C)c2cnc(Nc3ccc(N4CCNCC4)cn3)nc2n(C2CCCC2)c1=O + CC(Nc1ccc2c(c1)OCCn1cc(N3C(=O)OCC3C(F)F)nc1-2)C(N)=O",
    "answer_label": "mid"
  },
  {
    "compound": "CC(C)n1nc(-c2ccc3oc(N)nc3c2)c2c(N)ncnc21 + COc1c(OCCCN2CCOCC2)ccc2c3n(c(=NC(=O)c4cnc(N)nc4)nc12)CCN3",
    "answer_label": "low"
  },
  {
    "compound": "CC(C)n1nc(-c2ccc3oc(N)nc3c2)c2c(N)ncnc21 + CC(Nc1ccc2c(c1)OCCn1cc(N3C(=O)OCC3C(F)F)nc1-2)C(N)=O",
    "answer_label": "mid"
  },
  {
    "compound": "Cn1ncnc1[C@H]1c2n[nH]c(=O)c3cc(F)cc(c23)N[C@@H]1c1ccc(F)cc1 + COc1c(OCCCN2CCOCC2)ccc2c3n(c(=NC(=O)c4cnc(N)nc4)nc12)CCN3",
    "answer_label": "low"
  },
  {
    "compound": "CC(=O)c1c(C)c2cnc(Nc3ccc(N4CCNCC4)cn3)nc2n(C2CCCC2)c1=O + CC(Nc1ncnc2nc[nH]c12)c1cc2cccc(Cl)c2c(=O)n1-c1ccccc1",
    "answer_label": "high"
  },
  {
    "compound": "Cn1ncnc1[C@H]1c2n[nH]c(=O)c3cc(F)cc(c23)N[C@@H]1c1ccc(F)cc1 + CC(Nc1ncnc2nc[nH]c12)c1cc2cccc(Cl)c2c(=O)n1-c1ccccc1",
    "answer_label": "high"
  },
  {
    "compound": "CC(=O)c1c(C)c2cnc(Nc3ccc(N4CCNCC4)cn3)nc2n(C2CCCC2)c1=O + Cc1nc(NC(=O)N2CCCC2C(N)=O)sc1-c1ccnc(C(C)(C)C(F)(F)F)c1",
    "answer_label": "high"
  },
  {
    "compound": "CC(C)n1nc(-c2ccc3oc(N)nc3c2)c2c(N)ncnc21 + CC(Nc1ncnc2nc[nH]c12)c1cc2cccc(Cl)c2c(=O)n1-c1ccccc1",
    "answer_label": "high"
  },
  {
    "compound": "CC(=O)c1c(C)c2cnc(Nc3ccc(N4CCNCC4)cn3)nc2n(C2CCCC2)c1=O + COc1c(OCCCN2CCOCC2)ccc2c3n(c(=NC(=O)c4cnc(N)nc4)nc12)CCN3",
    "answer_label": "low"
  }
]

Moving on to another compound below.
Where would CC(C)n1nc(-c2ccc3oc(N)nc3c2)c2c(N)ncnc21 + Cc1nc(NC(=O)N2CCCC2C(N)=O)sc1-c1ccnc(C(C)(C)C(F)(F)F)c1 land among the classes by reported viability, T/C? mid

----------
Tested on: 855422-203-R-J1-PDC spheroids with HUVEC/MSC, viability
protocol_text: Anticancer human tumor 855422-203-R-J1-PDC cell line growth inhibition [PI3K];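 note: agents incubated with spheroids for one week before read-out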;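 for viability, T/C: 100% = DMSO vehicle-treated control wells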
condition_set: second compound 0.1 µM; first compound 0.01 µM; stronger effect = lower value
readout_label: viability, T/C (%)
Answer with a number only, understood to be in %.

Worked examples follow.
[
  {
    "compound": "Cn1ncnc1[C@H]1c2n[nH]c(=O)c3cc(F)cc(c23)N[C@@H]1c1ccc(F)cc1 + CC(Nc1ccc2c(c1)OCCn1cc(N3C(=O)OCC3C(F)F)nc1-2)C(N)=O",
    "units_label": "%",
    "viability, T/C": 69
  },
  {
    "compound": "CC(C)n1nc(-c2ccc3oc(N)nc3c2)c2c(N)ncnc21 + Cc1nc(NC(=O)N2CCCC2C(N)=O)sc1-c1ccnc(C(C)(C)C(F)(F)F)c1",
    "units_label": "%",
    "viability, T/C": 82.8
  },
  {
    "compound": "CCN1CCN(Cc2ccc(Nc3ncc(F)c(-c4cc(F)c5nc(C)n(C(C)C)c5c4)n3)nc2)CC1 + Cc1nc(NC(=O)N2CCCC2C(N)=O)sc1-c1ccnc(C(C)(C)C(F)(F)F)c1",
    "units_label": "%",
    "viability, T/C": 90.3
  }
]

Please give measured viability, T/C of the following entry: Cn1ncnc1[C@H]1c2n[nH]c(=O)c3cc(F)cc(c23)N[C@@H]1c1ccc(F)cc1 + CC(Nc1ncnc2nc[nH]c12)c1cc2cccc(Cl)c2c(=O)n1-c1ccccc1 101

Please give measured viability, T/C of the following entry: CCN1CCN(Cc2ccc(Nc3ncc(F)c(-c4cc(F)c5nc(C)n(C(C)C)c5c4)n3)nc2)CC1 + CC(Nc1ncnc2nc[nH]c12)c1cc2cccc(Cl)c2c(=O)n1-c1ccccc1 97.8

Please give measured viability, T/C of the following entry: CC(=O)c1c(C)c2cnc(Nc3ccc(N4CCNCC4)cn3)nc2n(C2CCCC2)c1=O + CC(Nc1ccc2c(c1)OCCn1cc(N3C(=O)OCC3C(F)F)nc1-2)C(N)=O 73.7

----------
Test system: 855422-203-R-J1-PDC spheroids with HUVEC/MSC, viability
protocol_text: Anticancer human tumor 855422-203-R-J1-PDC cell line growth inhibition [PI3K];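 note: agents incubated with spheroids for one week before read-out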
condition_set: curve of first compound; second compound 0.316 µM
// reported IC50 per item
Answer with a number only, understood to be in nM.

[
  {
    "compound": "Cn1ncc(Cl)c1-c1cc(C(=O)NC(CN)Cc2cccc(F)c2)sc1Cl (stereo not given) + CC(Nc1ccc2c(c1)OCCn1cc(N3C(=O)OCC3C(F)F)nc1-2)C(N)=O",
    "units_label": "nM",
    "reported_measurement": 35.2
  }
]

Here's the next entry for you.
Please give measured IC50 of the following entry: CC(C)NCC(C(=O)N1CCN(c2ncnc3c2C(C)CC3O)CC1)c1ccc(Cl)cc1 (stereo not given) + Cc1nc(NC(=O)N2CCCC2C(N)=O)sc1-c1ccnc(C(C)(C)C(F)(F)F)c1 875

----------
System: 855422-203-R-J1-PDC spheroids with HUVEC/MSC, viability
protocol_text: Anticancer human tumor 855422-203-R-J1-PDC cell line growth inhibition [PI3K]; active means viability on the fitted dose curve at most 10% of control; inactive means the rest;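 note: agents incubated with spheroids for one week before read-out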
condition_set: second compound 0.316 µM; first compound 10 µM
Reply using exactly one outcome from 1.0 (active), 0.0 (inactive)

Reference set (4 entries):
[
  {
    "molecule": "C=CC(=O)N1CCN(c2nc(=O)n(-c3c(C)ccnc3C(C)C)c3nc(-c4c(O)cccc4F)c(F)cc23)C(C)C1 (stereo not given) + COc1c(OCCCN2CCOCC2)ccc2c3n(c(=NC(=O)c4cnc(N)nc4)nc12)CCN3",
    "answer_label": 1.0
  },
  {
    "molecule": "CNC(=O)c1ccc(N2C(=S)N(c3ccc(C#N)c(C(F)(F)F)c3)C(=O)C2(C)C)cc1F + COc1c(OCCCN2CCOCC2)ccc2c3n(c(=NC(=O)c4cnc(N)nc4)nc12)CCN3",
    "answer_label": 0.0
  },
  {
    "molecule": "C=CC(=O)N1CCN(c2nc(=O)n(-c3c(C)ccnc3C(C)C)c3nc(-c4c(O)cccc4F)c(F)cc23)C(C)C1 (stereo not given) + Cc1nc(NC(=O)N2CCCC2C(N)=O)sc1-c1ccnc(C(C)(C)C(F)(F)F)c1",
    "answer_label": 0.0
  },
  {
    "molecule": "CNC(=O)c1ccc(N2C(=S)N(c3ccc(C#N)c(C(F)(F)F)c3)C(=O)C2(C)C)cc1F + CC(Nc1ccc2c(c1)OCCn1cc(N3C(=O)OCC3C(F)F)nc1-2)C(N)=O",
    "answer_label": 0.0
  }
]

Moving on to another molecule below.
What was the test verdict on CC1(C)CCC(CN2CCN(c3ccc(C(=O)NS(=O)(=O)c4ccc(NCC5CCOCC5)c([N+](=O)[O-])c4)c(Oc4cnc5[nH]ccc5c4)c3)CC2)=C(c2ccc(Cl)cc2)C1 + CC(Nc1ccc2c(c1)OCCn1cc(N3C(=O)OCC3C(F)F)nc1-2)C(N)=O ? 1.0
